- experimental.target: hERG channel (Homo sapiens (Human), UniProt Q12809)
- Sequence (Q12809 whole entry): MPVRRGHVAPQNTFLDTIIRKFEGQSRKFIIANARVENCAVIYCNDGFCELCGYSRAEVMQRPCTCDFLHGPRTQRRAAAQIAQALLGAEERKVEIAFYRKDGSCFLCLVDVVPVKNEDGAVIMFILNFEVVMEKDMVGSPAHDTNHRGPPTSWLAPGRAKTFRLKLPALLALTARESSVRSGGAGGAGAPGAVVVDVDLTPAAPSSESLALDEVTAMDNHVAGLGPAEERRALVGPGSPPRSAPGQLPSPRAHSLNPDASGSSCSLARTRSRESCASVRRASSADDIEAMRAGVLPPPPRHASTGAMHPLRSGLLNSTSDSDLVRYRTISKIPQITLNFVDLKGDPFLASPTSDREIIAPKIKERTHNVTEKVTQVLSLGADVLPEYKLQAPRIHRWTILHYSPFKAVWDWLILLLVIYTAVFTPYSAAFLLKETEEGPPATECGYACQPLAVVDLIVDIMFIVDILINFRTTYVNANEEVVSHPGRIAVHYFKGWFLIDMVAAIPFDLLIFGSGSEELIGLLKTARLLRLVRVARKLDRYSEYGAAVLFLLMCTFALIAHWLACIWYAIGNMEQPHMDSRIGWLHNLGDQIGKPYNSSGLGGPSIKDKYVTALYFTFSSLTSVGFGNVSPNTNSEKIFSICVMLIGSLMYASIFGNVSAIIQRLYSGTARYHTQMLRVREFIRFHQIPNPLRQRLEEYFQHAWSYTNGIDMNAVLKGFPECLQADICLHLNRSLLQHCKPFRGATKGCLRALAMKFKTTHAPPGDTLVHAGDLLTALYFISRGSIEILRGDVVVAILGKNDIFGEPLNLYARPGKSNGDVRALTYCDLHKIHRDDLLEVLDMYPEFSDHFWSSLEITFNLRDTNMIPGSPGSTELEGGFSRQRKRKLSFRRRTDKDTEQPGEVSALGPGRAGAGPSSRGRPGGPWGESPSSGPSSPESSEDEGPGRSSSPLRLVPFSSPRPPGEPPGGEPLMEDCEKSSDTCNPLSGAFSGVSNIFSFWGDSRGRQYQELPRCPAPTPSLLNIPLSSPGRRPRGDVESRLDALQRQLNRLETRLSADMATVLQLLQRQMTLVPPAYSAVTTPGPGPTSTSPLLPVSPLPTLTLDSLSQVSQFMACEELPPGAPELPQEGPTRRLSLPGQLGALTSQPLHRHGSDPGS
- measurement.description: hERG-Channel Assay (Assay 3), whole-cell patch clamp
- Assay type: cell-based
- reported.conditions: HEK293 cells stably transfected with hERG cDNA, pH 7.4, 35° C.
assay.metric: inhibition at 10 µM (%)
Value expressed in %; do not type the unit.

Input: Query the reported inhibition at 10 µM for hERG channel (Homo sapiens (Human), UniProt Q12809); item: COC1CCC2(CC1)Cc1ccc(C#N)cc1C21N=C(N)N(CC2CCCO2)C1=O (stereo not shown)
Output: 16

// provenance: patent US9526727B2
